FYI, the data here is from patent US7153977B2.

molecular target: es transport system in murine EL-4 cells (Mus musculus, UniProt Q9JIM1); experiment: NEM inhibition of 3H-uridine transport in EL-4 cells (only es)
Sequence (Q9JIM1 whole entry): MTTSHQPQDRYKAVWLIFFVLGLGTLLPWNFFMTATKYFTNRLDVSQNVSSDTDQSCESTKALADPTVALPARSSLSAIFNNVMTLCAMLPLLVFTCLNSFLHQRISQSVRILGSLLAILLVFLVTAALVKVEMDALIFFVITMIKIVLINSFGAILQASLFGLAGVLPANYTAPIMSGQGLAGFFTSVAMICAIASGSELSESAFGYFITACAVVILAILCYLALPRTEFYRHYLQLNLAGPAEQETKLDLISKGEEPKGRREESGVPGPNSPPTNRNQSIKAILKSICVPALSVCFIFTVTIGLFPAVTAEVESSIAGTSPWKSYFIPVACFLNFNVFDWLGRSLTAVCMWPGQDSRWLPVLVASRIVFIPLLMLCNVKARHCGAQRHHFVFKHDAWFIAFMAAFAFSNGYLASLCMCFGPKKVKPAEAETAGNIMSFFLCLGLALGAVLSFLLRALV
assay.endpoint: IC50

Look at this compound and give its reported IC50. CCN1C(=O)C=CC1=O [NEM, N-Ethylmaleimide]
~100 µM

###

tested on: HL-60 cells; test: Growth of HL-60 cells; conditions: read-out: IC50 on cell growth; HL-60 cells, 3 days of exposure
assay.endpoint: IC50

Look at this compound and give its reported IC50. O=C(ON1C(=O)CCC1=O)C1CCC(CN2C(=O)C=CC2=O)CC1 (stereo not shown) [SMCC, reference compound]
< 500 nM

###

IC50: recorded values
target: 5-HT receptor (3H-5-HT high and low affinity binding sites of murine brain membranes); construct: other: 5 min pretreatment, 5 nM 3H-5-HT 30 min; test: Inhibition of 3H-5-HT binding to murine brain membranes; details: 5 min pretreatment, 5 nM 3H-5-HT 30 min

> print(dat)
                                   compound  observed.value
1  O=C(CCCN1C(=O)C=CC1=O)NCCc1c[nH]c2ccc(O)cc12 [LBT3002]        ~0.03 nM
2  O=C1C=CC(=O)N1CCc1c[nH]c2ccc(O)cc12 [LBT3001]           ~1 nM
3  O=C(CCN1C(=O)C=CC1=O)NCCc1c[nH]c2ccc(O)cc12 [LBT3004]         ~200 nM

Attention now turns to another entry.
Look at this compound and give its reported IC50. O=C(NCCc1c[nH]c2ccc(O)cc12)C1CCC(CN2C(=O)C=CC2=O)CC1 (stereo not shown) [LBT3005]
500 nM

###

molecular target: es nucleoside transporter (human HL-60 promyelocytic leukemia plasma membranes) (Homo sapiens, UniProt Q99808); experiment: 3H-NBMPR binding to HL-60 plasma membranes; conditions: HL-60 plasma membranes; 5 min pretreatment, 5 nM 3H-NBMPR 30 min; read-out: IC50 of inhibition of specific 3H-NBMPR binding
Sequence (Q99808 whole entry): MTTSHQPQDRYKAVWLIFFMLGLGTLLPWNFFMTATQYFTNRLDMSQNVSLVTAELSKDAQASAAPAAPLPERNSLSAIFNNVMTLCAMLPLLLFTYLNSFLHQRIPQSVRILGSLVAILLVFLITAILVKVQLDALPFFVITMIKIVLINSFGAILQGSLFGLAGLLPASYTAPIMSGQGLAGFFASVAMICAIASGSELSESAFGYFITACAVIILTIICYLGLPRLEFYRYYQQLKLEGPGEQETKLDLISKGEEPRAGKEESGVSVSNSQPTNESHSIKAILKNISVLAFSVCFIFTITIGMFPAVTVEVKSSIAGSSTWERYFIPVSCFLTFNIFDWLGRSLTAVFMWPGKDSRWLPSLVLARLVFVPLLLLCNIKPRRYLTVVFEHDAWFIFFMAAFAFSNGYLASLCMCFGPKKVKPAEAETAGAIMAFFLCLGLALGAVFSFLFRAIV
assay.endpoint: pIC50
Reminder that pIC50 means the negative base-10 logarithm of the concentration expressed in mol/L.

Look at this compound and give its reported pIC50. O=C(ON1C(=O)CCC1=O)C1CCC(CN2C(=O)C=CC2=O)CC1 (stereo not shown) [SMCC, reference compound]
4.00

###

Molecular target: ei transport system in rat Morris 7777 cells (Rattus norvegicus, UniProt O54699)
Sequence (O54699 1-456): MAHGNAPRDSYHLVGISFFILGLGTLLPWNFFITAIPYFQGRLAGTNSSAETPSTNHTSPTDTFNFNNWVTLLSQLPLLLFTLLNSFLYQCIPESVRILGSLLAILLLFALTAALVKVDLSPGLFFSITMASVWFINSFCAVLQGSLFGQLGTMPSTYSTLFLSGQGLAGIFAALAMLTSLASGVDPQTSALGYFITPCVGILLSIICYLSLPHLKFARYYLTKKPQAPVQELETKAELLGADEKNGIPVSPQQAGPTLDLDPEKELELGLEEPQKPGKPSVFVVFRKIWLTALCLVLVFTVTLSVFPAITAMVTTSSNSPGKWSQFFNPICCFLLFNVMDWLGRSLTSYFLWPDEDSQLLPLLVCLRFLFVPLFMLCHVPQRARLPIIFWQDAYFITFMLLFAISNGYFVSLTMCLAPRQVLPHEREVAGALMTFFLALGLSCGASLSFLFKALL
Test: NEM inhibition of 3H-uridine transport in Morris 7777 cells (only ei)
assay.endpoint: IC50

Look at this molecule and give its reported IC50. CCN1C(=O)C=CC1=O [NEM, N-Ethylmaleimide]
~1500 µM

###

target: 5-HT receptor (3H-5-HT high and low affinity binding sites of murine brain membranes); assay: Inhibition of 3H-5-HT binding to murine brain membranes; conditions: 5 min pretreatment, 5 nM 3H-5-HT 30 min
pIC50: −log10 of the molar value.
assay.endpoint: pIC50

> print(dat)
                                   molecule                               test.system  observed.value
1  O=C1C=CC(=O)N1CCc1c[nH]c2ccc(O)cc12 [LBT3001]  5-HT receptor (3H-5-HT high and low affinity binding sites of murine brain membranes)           ~4.30

Look at this molecule and give its reported pIC50. O=C(CCCN1C(=O)C=CC1=O)NCCc1c[nH]c2ccc(O)cc12 [LBT3002]
~3.70

Look at this molecule and give its reported pIC50. O=C(CCN1C(=O)C=CC1=O)NCCc1c[nH]c2ccc(O)cc12 [LBT3004]
~4.30

Look at this molecule and give its reported pIC50. O=C(NCCc1c[nH]c2ccc(O)cc12)C1CCC(CN2C(=O)C=CC2=O)CC1 (stereo not shown) [LBT3005]
3.52
